Test: NCI Yeast Anticancer Drug Screen. Data for the mgt1 strain (AID 153)
Details: S. cerevisiae mgt1 mutant growth inhibition; at 3.7 µM; stronger effect = higher value
About 79,000 compounds went through this panel and 15% of them were active in at least one assay; those are over-represented in the sample as a whole.

molecule | growth inhibition [%]
CC1CN(/N=C\c2ccc([N+](=O)[O-])o2)C(=O)O1 (stereo unspecified) | -1
COc1cc([C@@H]2c3cc4c(cc3[C@@H](NC(=O)NO)[C@H]3COC(=O)[C@H]23)OCO4)cc(OC)c1O | -3
O=C1NC(c2cccc(OCc3ccccc3)c2)Nc2ccccc21 (stereo unspecified) | -19
COC(=O)C(=O)c1c(-c2ccc(Cl)c(Cl)c2)[nH]c2[nH]n(-c3ccccc3)c(=O)c2c1=O | -2
Cc1cc2nc3ccccc3n2c2ccccc12 | 4
CC(C)(Br)C(=O)/C=C/c1ccccc1 | -1
CCCCCCCCCCCCCCCCCCN(C)C(COC)COP(=O)([O-])OCC[N+](C)(C)C (stereo unspecified) | 8
COc1ccc2cc(C(C)C(=O)N3CCOC3=O)ccc2c1 (stereo unspecified) | 6
C=C(C(=O)OC)N1C(=O)CC(C)C1=O (stereo unspecified) | 6
CC(C)NCCCNc1c2ccccc2nc2cccc([N+](=O)[O-])c12 | 38
O=P(C(=S)Nc1c(Cl)cccc1Cl)(c1ccccc1)c1ccccc1 | -16

---

# growth inhibition per record follows
Assay: NCI Yeast Anticancer Drug Screen. Data for the wt1 strain (AID 149);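 further: 0% = growth of vehicle-treated wt1 cultures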
Settings: S. cerevisiae wt1 strain (SPY 50644) growth inhibition; at 100.0 µM; stronger effect = higher value
Experimental: Growth inhibition of yeast strains with defined genetic alterations is measured as a screen for potential anti-cancer activity. Selected strains with alterations in DNA damage repair or cell cycle control were exposed to compounds and growth inhibition was measured relative to vehicle treated controls. The strain used in this assay is wt1
About 79,000 compounds went through this panel and 15% of them were active in at least one assay; those are over-represented in the sample as a whole.

compound | growth inhibition / %
CNC(=S)N/N=C(/C)CCC/C(C)=N/NC(=S)NC | 44
O=C(C#Cc1ccccc1)Nc1ccccc1 | 95
CCN(CC)CCC(=O)Nc1ccc2sc3ccccc3c(=O)c2n1 | 8
Cc1cc(O)c(C(C)C)cc1SC#N | 99
COc1ccccc1NC(=O)c1ccc(Cl)cc1 | -1
CCN(CC)CCNc1ccc2nc(C)n3c4ccc(OC)cc4c(=O)c1c23 | 21
Oc1ccc(N=Nc2ccc(Cl)cc2)cc1 | 99
O=C(c1ccccc1)[C@H]1Nc2ccc(Cl)cc2[C@H]2OCCC[C@@H]12 | 88
N#[N+]c1c([O-])c2ccccc2c2ccccc12 | 97
CC1(C2CC2)C(C#N)(C#N)C1(C#N)C#N | 48
CC1(C)OC(=O)C(=Cc2ccc([N+](=O)[O-])s2)C(=O)O1 | 35
C[n+]1c(/C=C/c2ccc(/C=N/NC(=O)c3ccc(C(=O)N/N=C/c4ccc(/C=C/c5cn6ccccc6[n+]5C)cc4)cc3)cc2)cn2ccccc21 | 95
COC(=O)C(Cl)(Cl)N=Nc1c(Cl)cc(Cl)c(C)c1Cl | 99
O=C(CN(c1ccccc1)c1ccccc1)n1nnc2ccccc21 | 82
c1ccc2c(c1)N=C1CCCC3CCCC123 (stereo not given) | 97
COc1ccc2c3c1OC(C)C31CC(=O)CCC1CC2 (stereo not given) | -3
COC(=N)c1ccc(O)c(C)c1 | -3
Cc1ccc([N+](=O)[O-])c2c(NCCC[N+](C)(C)[O-])c3ccccc3nc12 | 2
NC(CCCCCCCCCCCCC(N)C(=O)c1ccccc1)C(=O)c1ccccc1 (stereo not given) | 95
O=C1c2ccccc2-c2ccc(N=Cc3ccccc3)cc21 | 69
S=C1N(c2ccc(Cl)cc2)C2=C(N=Nc3ccccc3)C(=Nc3ccccc3S2)N1c1ccccn1 | 85
CC(=O)NC(c1nc2cc(C)c(C)cc2[nH]1)c1nc2cc(C)c(C)cc2[nH]1 | 62
O=c1c2ccccc2nc(-c2cccc([N+](=O)[O-])c2)n1O | 90
Nc1ccc2cc(Br)ccc2c1Br | -1
Cc1ccc(NC(Nc2ccc(C)cc2C)=C(C(Cl)=C(Cl)Cl)[N+](=O)[O-])c(C)c1 | 96
CCCCCCCSCC1C(=O)C23C(O)C1CCC2C12COC3(O)C(O)C1C(C)(C)CCC2O (stereo not given) | 90
CC(C)S(=O)(=O)/C=C\S(=O)(=O)C(C)C | 98
O=C(O)c1c2ccc(Cl)cc2nc2[nH]c(=O)[nH]c(=O)c12 | -18
NC(N)=NS(=O)(=O)c1ccc(Nc2c3ccccc3nc3c(C(=O)NC(CO)(CO)CO)cccc23)cc1 | 2
O=c1cccccc1[O-].O=c1cccccc1[O-].O=c1cccccc1[O-].[Eu+3] | 97
CC(C)(CN1CCCCC1)C(=O)CC(SCCS(=O)(=O)O)c1ccccc1 (stereo not given) | 10
O=C1c2cccc3cccc(c23)C(=O)N1CCNCCN1C(=O)c2cccc3cccc(c23)C1=O | 5
NCCCSc1ccccc1 | -3
Cc1cccc(C)c1NC(=O)CCC(=O)C(C)C(=O)c1ccc(O)cc1 (stereo not given) | -2
CCN(CC)CC(=O)c1ccc2cc(Cl)c3ccccc3c2c1 | 98
COc1cccc(C(NC2=NCCC=N2)c2cc3c(cc2O)OCO3)c1O (stereo not given) | 8
O=[N+]([O-])[O][Sn]([O][Sn]([O][N+](=O)[O-])([c]1ccccc1)[c]1ccccc1)([c]1ccccc1)[c]1ccccc1 | 62
c1cc(-c2sc(-c3ccncc3)c(-c3ccncc3)c2-c2ccncc2)ccn1 | 58
O=C(c1cc(=O)c2ccc(O)cc2o1)c1ccc(Cl)cc1Cl | 92
O=C(O)c1ccc2cc(Cl)c3ccccc3c2c1 | 43
CCCCOc1ccc2nc(C)cc(N=[N+]=[N-])c2c1 | 69
COc1ccc2nc3cccc([N+](=O)[O-])c3c(NCCNCCN(C)C)c2c1 | 3
CC(=O)CC(c1ccccc1)c1c(O)c2ccccc2oc1=O (stereo not given) | 64
O=S1(=O)CCC2=CC(C(F)(F)F)=CC(C(F)(F)F)=CN21 | 98
Oc1c2c(c(O)c3ccccc13)C1(N=N2)c2ccccc2Oc2ccccc21 | 96
